Origin of measurements: patent US9359352B2

The molecules below have reported IC50 for UniProt P42338.

Sample answers from the record:
| molecule | assay endpoint | result |
| --- | --- | --- |
| CC1CN(C2CN(c3cnc4ccc(-c5ccc6oc(N)nc6c5)nc4n3)C2)CCO1 (centres unmarked) | IC50 | > 10 µM |
| Nc1nc2cc(-c3ccc4ncc(N5C6CCC5COC6)cc4n3)ccc2o1 | IC50 | < 10 µM |
| Nc1nc2cc(-c3ccc4ncc(N5CCN(C(=O)C6(N)CC6)CC5)cc4n3)ccc2o1 | IC50 | < 1 µM |

Give measured IC50 for every item shown.
1. CCN1CCN(C2CN(c3cnc4ccc(-c5ccc6oc(N)nc6c5)nc4n3)C2)CC1
2. C[C@@H](N)C(=O)N1CCN(c2cnc3ccc(-c4ccc5oc(N)nc5c4)nc3n2)CC1
3. C[C@H]1CN(C2CN(c3cnc4ccc(-c5ccc6oc(N)nc6c5)nc4c3)C2)CCN1C

a:
< 10 µM
< 10 µM
< 10 µM

Give measured IC50 for every item shown.
1. Nc1nc2cc(-c3ccc4ncc(N5CC(N6C7CCC6COC7)C5)cc4n3)ccc2o1
2. Nc1nc2cc(-c3ccc4ncc(N5CC(N6CCN(C7CC7)CC6)C5)nc4n3)ccc2o1

a:
> 10 µM
< 10 µM

----------
- target: PI3K α (Homo sapiens)
- Construct: purchased Upstate
- Sequence (P42336 whole entry, one chain of several): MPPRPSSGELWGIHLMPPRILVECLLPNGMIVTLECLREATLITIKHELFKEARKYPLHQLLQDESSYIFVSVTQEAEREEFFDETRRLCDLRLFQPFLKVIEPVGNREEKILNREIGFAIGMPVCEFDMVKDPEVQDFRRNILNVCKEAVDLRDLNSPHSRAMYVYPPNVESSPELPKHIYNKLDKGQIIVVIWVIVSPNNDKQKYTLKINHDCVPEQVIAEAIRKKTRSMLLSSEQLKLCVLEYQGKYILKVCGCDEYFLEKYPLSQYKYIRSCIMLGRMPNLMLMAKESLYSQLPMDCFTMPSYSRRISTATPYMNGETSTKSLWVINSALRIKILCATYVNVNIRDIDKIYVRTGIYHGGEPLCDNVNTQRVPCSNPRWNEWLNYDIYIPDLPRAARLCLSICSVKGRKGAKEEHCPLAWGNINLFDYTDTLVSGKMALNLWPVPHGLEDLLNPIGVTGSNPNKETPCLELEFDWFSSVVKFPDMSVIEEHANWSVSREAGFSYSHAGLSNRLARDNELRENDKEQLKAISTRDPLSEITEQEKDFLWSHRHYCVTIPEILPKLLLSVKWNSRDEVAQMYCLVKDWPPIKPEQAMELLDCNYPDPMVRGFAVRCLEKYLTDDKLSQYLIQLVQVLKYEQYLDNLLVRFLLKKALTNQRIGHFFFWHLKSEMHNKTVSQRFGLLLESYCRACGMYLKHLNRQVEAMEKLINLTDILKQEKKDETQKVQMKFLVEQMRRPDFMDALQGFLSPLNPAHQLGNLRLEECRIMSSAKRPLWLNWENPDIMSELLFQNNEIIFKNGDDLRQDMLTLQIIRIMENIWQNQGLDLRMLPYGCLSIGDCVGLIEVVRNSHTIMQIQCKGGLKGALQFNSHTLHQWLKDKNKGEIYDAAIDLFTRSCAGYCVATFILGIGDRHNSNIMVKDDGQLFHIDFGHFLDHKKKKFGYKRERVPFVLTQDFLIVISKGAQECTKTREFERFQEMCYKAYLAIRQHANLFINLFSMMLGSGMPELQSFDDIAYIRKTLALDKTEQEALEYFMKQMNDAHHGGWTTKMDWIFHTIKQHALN
- measurement protocol: PI 3-Kinase HTRF inhibition assay, PI3K α
- Format: biochemical
- assay setup: in vitro; read-out: PI3K α IC50
assay endpoint: IC50

| chem smiles | assay endpoint | result |
| --- | --- | --- |
| CC1(C)CN(C2CN(c3cnc4ccc(-c5ccc6oc(N)nc6c5)nc4c3)C2)CCN1 | IC50 | < 100 nM |

Give measured IC50 for every item shown.
1. CC(C)N1CCN(c2cnc3ccc(-c4ccc5oc(N)nc5c4)nc3n2)CC1
2. CC(C)N1CCN(c2cnc3ccc(-c4ccc5oc(N)nc5c4)nc3c2)CC1
3. CCOC(=O)N1CCN(c2cnc3ccc(-c4ccc5oc(N)nc5c4)nc3n2)CC1
4. C[C@@H]1CN(C2CN(c3cnc4ccc(-c5ccc6oc(N)nc6c5)nc4n3)C2)CCN1C

a:
< 100 nM
< 100 nM
< 100 nM
< 100 nM

Give measured IC50 for every item shown.
1. CC1(C)CN(C2CN(c3cnc4ccc(-c5ccc6oc(N)nc6c5)nc4n3)C2)CCO1
2. CCN(CC)c1cnc2ccc(-c3ccc4oc(N)nc4c3)nc2n1
3. CC(C)N1CCN(C2CN(c3cnc4ccc(-c5ccc6oc(N)nc6c5)nc4c3)C2)CC1

a:
1. < 1000 nM
2. < 1000 nM
3. < 100 nM

----------
- target: PI3K α (Homo sapiens)
- Construct: purchased Upstate
- measurement protocol: PI 3-Kinase HTRF inhibition assay, PI3K α
- Type: biochemical
assay endpoint: IC50

q: May I ask what IC50 has been recorded for `Nc1nc2cc(-c3cnc4ccc(N5C6CCC5COC6)nc4c3)ccc2o1` ?
a: < 10 µM

----------
So I've got a bunch of compounds here, and I need their IC50 values.
- target: PI3K α (Homo sapiens)
- Construct: purchased Upstate
- measurement protocol: PI 3-Kinase HTRF inhibition assay, PI3K α
- Format: biochemical
- assay setup: in vitro; read-out: PI3K α IC50

Sample answers from the record:
| chem smiles | target | assay endpoint | result |
| --- | --- | --- | --- |
| C[C@H](N)C(=O)N1CCN(c2cnc3ccc(-c4ccc5oc(N)nc5c4)nc3n2)CC1 | PI3K α (Homo sapiens) | IC50 | < 100 nM |
| Nc1nc2cc(-c3ccc4ncc(N5CC(N6CC7CCC(C6)O7)C5)nc4n3)ccc2o1 | PI3K α (Homo sapiens) | IC50 | < 1000 nM |
| C[C@@H]1CN(c2cnc3ccc(-c4ccc5oc(N)nc5c4)nc3c2)CCN1 | PI3K α (Homo sapiens) | IC50 | < 100 nM |
| C[C@@H]1COCCN1c1cnc2ccc(-c3ccc4oc(N)nc4c3)nc2n1 | PI3K α (Homo sapiens) | IC50 | < 100 nM |
| C[C@@H]1CN(C2CN(c3cnc4ccc(-c5ccc6oc(N)nc6c5)nc4c3)C2)CCN1 | PI3K α (Homo sapiens) | IC50 | < 100 nM |
| NCC(=O)N1CCN(c2cnc3ccc(-c4ccc5oc(N)nc5c4)nc3c2)CC1 | PI3K α (Homo sapiens) | IC50 | < 100 nM |
| CC(C)N1CCN(C2CN(c3cnc4ccc(-c5ccc6oc(N)nc6c5)nc4n3)C2)CC1 | PI3K α (Homo sapiens) | IC50 | < 10000 nM |

Query compound follows.
q: Which IC50 is reported with PI3K α (Homo sapiens) for this entry: `Nc1nc2cc(-c3ccc4ncc(N5CC(N6C7CCC6COC7)C5)cc4n3)ccc2o1` ?
a: < 100 nM

----------
- target: PI3K β (Homo sapiens)
- Sequence (P42338 whole entry): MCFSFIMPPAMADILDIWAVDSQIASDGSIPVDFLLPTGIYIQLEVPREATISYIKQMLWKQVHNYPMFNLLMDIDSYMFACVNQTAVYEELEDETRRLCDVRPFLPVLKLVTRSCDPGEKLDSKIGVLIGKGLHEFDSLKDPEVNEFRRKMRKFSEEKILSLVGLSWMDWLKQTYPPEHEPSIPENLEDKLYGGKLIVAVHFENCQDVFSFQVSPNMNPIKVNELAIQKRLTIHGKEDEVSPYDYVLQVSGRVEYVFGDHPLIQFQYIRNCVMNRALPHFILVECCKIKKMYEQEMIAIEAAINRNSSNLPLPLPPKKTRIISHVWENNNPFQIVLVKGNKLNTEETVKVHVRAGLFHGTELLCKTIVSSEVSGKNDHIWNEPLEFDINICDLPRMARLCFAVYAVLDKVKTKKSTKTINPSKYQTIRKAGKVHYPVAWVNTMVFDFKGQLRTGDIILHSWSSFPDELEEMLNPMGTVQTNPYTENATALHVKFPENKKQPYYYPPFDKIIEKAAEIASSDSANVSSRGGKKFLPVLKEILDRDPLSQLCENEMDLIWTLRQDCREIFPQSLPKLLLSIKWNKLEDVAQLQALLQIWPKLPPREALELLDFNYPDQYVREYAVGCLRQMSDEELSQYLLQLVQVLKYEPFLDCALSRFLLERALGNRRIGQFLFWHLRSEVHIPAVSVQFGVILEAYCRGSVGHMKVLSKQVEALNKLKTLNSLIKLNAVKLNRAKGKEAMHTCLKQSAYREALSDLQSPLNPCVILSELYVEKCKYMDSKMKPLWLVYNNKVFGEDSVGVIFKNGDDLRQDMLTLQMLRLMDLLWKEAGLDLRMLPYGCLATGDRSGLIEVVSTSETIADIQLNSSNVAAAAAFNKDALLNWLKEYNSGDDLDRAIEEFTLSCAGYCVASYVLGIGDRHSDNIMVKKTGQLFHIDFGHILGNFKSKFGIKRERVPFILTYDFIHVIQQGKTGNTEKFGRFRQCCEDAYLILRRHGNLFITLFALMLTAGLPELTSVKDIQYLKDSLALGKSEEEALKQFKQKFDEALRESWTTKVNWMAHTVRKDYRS
- Sequence (P27986 whole entry partner): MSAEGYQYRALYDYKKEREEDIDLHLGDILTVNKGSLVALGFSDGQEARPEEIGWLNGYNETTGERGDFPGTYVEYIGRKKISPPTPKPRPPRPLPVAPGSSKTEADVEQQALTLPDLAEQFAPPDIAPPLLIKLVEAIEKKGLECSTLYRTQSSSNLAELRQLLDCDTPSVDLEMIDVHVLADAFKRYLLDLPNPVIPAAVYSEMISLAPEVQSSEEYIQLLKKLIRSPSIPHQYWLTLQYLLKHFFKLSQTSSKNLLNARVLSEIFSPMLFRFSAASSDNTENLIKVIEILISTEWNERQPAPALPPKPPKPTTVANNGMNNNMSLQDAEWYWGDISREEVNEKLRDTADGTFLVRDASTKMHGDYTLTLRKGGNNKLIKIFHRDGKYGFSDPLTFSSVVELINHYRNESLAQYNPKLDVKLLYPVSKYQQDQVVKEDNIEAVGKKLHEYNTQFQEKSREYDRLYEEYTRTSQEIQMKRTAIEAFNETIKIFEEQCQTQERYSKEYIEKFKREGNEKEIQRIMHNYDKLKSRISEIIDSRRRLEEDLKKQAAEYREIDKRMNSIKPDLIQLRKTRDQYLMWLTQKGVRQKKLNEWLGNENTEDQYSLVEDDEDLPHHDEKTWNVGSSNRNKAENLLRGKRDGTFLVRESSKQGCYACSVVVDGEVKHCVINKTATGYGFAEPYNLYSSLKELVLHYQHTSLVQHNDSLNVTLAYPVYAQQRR
pIC50: −log10 of the molar value.
assay endpoint: pIC50

Sample answers from the record:
| molecule | assay endpoint | result |
| --- | --- | --- |
| Nc1nc2cc(-c3ccc4nc(N5CCOCC5)cnc4n3)ccc2o1 | pIC50 | < 5.00 |
| Nc1nc2cc(-c3ccc4ncc(-c5cccnc5)nc4n3)ccc2o1 | pIC50 | > 5.00 |
| Nc1nc2cc(-c3ccc4ncc(N5CC(N6CCOCC6)C5)nc4n3)ccc2o1 | pIC50 | < 5.00 |
| C[C@H]1CN(C2CN(c3cnc4ccc(-c5ccc6oc(N)nc6c5)nc4c3)C2)CCN1 | pIC50 | > 5.00 |
| CC(C)N1CCN(C2CN(c3cnc4ccc(-c5ccc6nc(N)[nH]c6c5)nc4c3)C2)CC1 | pIC50 | < 5.00 |
| C[C@@H]1CN(C2CN(c3cnc4ccc(-c5ccc6nc(N)[nH]c6c5)nc4c3)C2)CCN1C | pIC50 | < 5.00 |
| Nc1nc2cc(-c3ccc4ncc(N5CC6CCC(C5)O6)cc4n3)ccc2o1 | pIC50 | < 5.00 |
| Nc1nc2cc(-c3cnc4ccc(N5CCOCC5)nc4c3)ccc2o1 | pIC50 | < 5.00 |
| C[C@H]1COCCN1C1CN(c2cnc3ccc(-c4ccc5oc(N)nc5c4)nc3c2)C1 | pIC50 | < 5.00 |
| Nc1nc2cc(-c3ccc4ncc(N5CC(N6CCN(CCO)CC6)C5)cc4n3)ccc2o1 | pIC50 | > 5.00 |

Give measured pIC50 for every item shown.
1. CN1CC2CN(c3cnc4ccc(-c5ccc6oc(N)nc6c5)nc4c3)CC2C1 (stereo not drawn)
2. Nc1nc2cc(-c3ccc4ncc(N5CC(N6C7CCC6COC7)C5)nc4n3)ccc2o1
3. Nc1nc2cc(-c3ccc4ncc(N5CCOCC5)nc4n3)ccc2o1
4. C[C@@H]1COCCN1C1CN(c2cnc3ccc(-c4ccc5oc(N)nc5c4)nc3c2)C1
5. CC1(C)CN(C2CN(c3cnc4ccc(-c5ccc6oc(N)nc6c5)nc4c3)C2)CCN1
6. Nc1nc2cc(-c3ccc4ncc(N5C6CCC5COC6)nc4n3)ccc2o1
7. Nc1nc2cc(-c3ccc4ncc(N5CC(N6CCN(CCO)CC6)C5)nc4n3)ccc2o1
8. CC1(C)CN(C2CN(c3cnc4ccc(-c5ccc6oc(N)nc6c5)nc4n3)C2)CCN1

a:
1. > 6.00
2. < 5.00
3. > 6.00
4. > 5.00
5. > 5.00
6. < 5.00
7. > 5.00
8. > 5.00

Give measured pIC50 for every item shown.
1. CN1CCN(c2cnc3ccc(-c4ccc5oc(N)nc5c4)nc3n2)CC1
2. C[C@@H]1CN(C2CN(c3cnc4ccc(-c5ccc6oc(N)nc6c5)nc4n3)C2)CCN1
3. CC(C)N1CCN(C2CN(c3cnc4ccc(-c5ccc6oc(N)nc6c5)nc4n3)C2)CC1
4. CC(C)(N)C(=O)N1CCN(c2ccc3ncc(-c4ccc5oc(N)nc5c4)cc3n2)CC1
5. C[C@@H]1CN(C2CN(c3cnc4ccc(-c5ccc6oc(N)nc6c5)nc4c3)C2)CCN1
6. NCC(=O)N1CCN(c2cnc3ccc(-c4ccc5oc(N)nc5c4)nc3n2)CC1
7. Nc1nc2cc(-c3ccc4ncc(N5CC6CCC(C5)O6)nc4n3)ccc2o1

a:
["> 6.00", "< 5.00", "< 5.00", "< 5.00", "> 5.00", "> 5.00", "< 5.00"]

Give measured pIC50 for every item shown.
1. C[C@H]1CN(c2cnc3ccc(-c4ccc5oc(N)nc5c4)nc3n2)CCN1
2. CN1CCN(C2CN(c3cnc4ccc(-c5ccc6oc(N)nc6c5)nc4c3)C2)CC1=O
3. CC(C)N1CCN(c2cnc3ccc(-c4ccc5oc(N)nc5c4)nc3c2)CC1
4. C[C@@H]1COCCN1c1cnc2ccc(-c3ccc4oc(N)nc4c3)nc2n1
5. CCOC(=O)N1CCN(c2cnc3ccc(-c4ccc5oc(N)nc5c4)nc3n2)CC1

a:
1. > 7.00
2. > 5.00
3. > 6.00
4. > 5.00
5. > 6.00
